Hey, just so you know, these numbers are from ChEMBL document CHEMBL5120967.

test: Oral bioavailability in OVX-induced C57/BL6 mouse model; assay type: ADME, organism-based; settings: female, in vivo
Property Name: bioavailability (%)

[a] Cc1cccc(C)c1NC(=O)C(Cc1c[nH]c2ccccc12)NCCCc1ccccc1 (configuration not stated)
[b] Cc1cccc(C)c1NC(=O)c1cc2c([nH]c3ccccc32)c(CCc2ccccc2)n1
Enquiry: Min bioavailability? a | b # respond with the chosen item's label
Return: a
(a: 2.4%, b: 4.9%)

---

assay: AUC(0 to t) in OVX-induced C57/BL6 mouse model at 5 mg/kg, po; format: ADME, organism-based; parameters: dose 5 mg/kg, route po; details: female, in vivo
Property Name: AUC(0-t) (ng·h/mL)

[a] Cc1cccc(C)c1NC(=O)C(Cc1c[nH]c2ccccc12)NCCCc1ccccc1 (configuration not stated)
[b] Cc1cccc(C)c1NC(=O)c1cc2c([nH]c3ccccc32)c(CCc2ccccc2)n1
Enquiry: Which record shows the lower AUC(0-t): the first, a , or the second, b ? Provide the label of your selected option as the answer.
Return: a

---

assay: AUC(0 to t) in OVX-induced C57/BL6 mouse model at 3 mg/kg, iv; assay type: ADME, organism-based; design: dose 3 mg/kg, route iv; details: female, in vivo
Property Name: AUC(0-t) (ng·h/mL)

[a] Cc1cccc(C)c1NC(=O)c1cc2c([nH]c3ccccc32)c(CCc2ccccc2)n1
[b] Cc1cccc(C)c1NC(=O)C(Cc1c[nH]c2ccccc12)NCCCc1ccccc1 (configuration not stated)
Enquiry: Between the entries labelled a and b , which has a larger AUC(0-t) value on record? Refer to your chosen entry by its label in the reply.
Return: a
(a: 2710 ng·h/mL, b: 984 ng·h/mL)

---

assay: Anti-osteoporosis activity C57/BL6 mouse bone marrow macrophage cells assessed as inhibition of RANKL-induced osteoclastogenesis at 1 uM measured after 5 to 6 days in presence of M-CSF and RNKL by TRAP staining microscopic analysis; format: functional, BMDM; parameters: scale not given: the % may be the effect or the level left; conditions: time 5-6 day
Property Name: Activity (%)
A number alone suffices; assume %.

{"Molecule": "Cc1cccc(C)c1NC(=O)c1cc2c([nH]c3ccccc32)c(CCc2ccc(F)cc2)n1", "Activity / %": 65.2}
{"Molecule": "CC(=O)Nc1ccc(CCc2nc(C(=O)Nc3c(C)cccc3C)cc3c2[nH]c2ccccc23)cc1", "Activity / %": 55}
{"Molecule": "Cc1cccc(C)c1NC(=O)c1cc2c([nH]c3ccccc32)c(CCc2ccccc2)n1", "Activity / %": 89.3}
{"Molecule": "COc1ccccc1CCc1nc(C(=O)Nc2c(C)cccc2C)cc2c1[nH]c1ccccc12", "Activity / %": 83}
{"Molecule": "Cc1ccc(CCc2nc(C(=O)Nc3c(C)cccc3C)cc3c2[nH]c2ccccc23)cc1", "Activity / %": 77.6}
{"Molecule": "Cc1cccc(C)c1NC(=O)c1cc2c([nH]c3ccccc32)c(CCc2ccc(C(=O)O)cc2)n1", "Activity / %": 85.9}
{"Molecule": "Cn1cc(NC(=O)c2cc3c([nH]c4ccccc43)c(CCc3ccccc3)n2)cn1", "Activity / %": 0}
{"Molecule": "Cc1cccc(C)c1NC(=O)c1cc2c([nH]c3ccccc32)c(CCc2ccccc2F)n1", "Activity / %": 66.7}

Now, please, on to the next molecule.
Enquiry: Please report Activity for the following molecule: Cc1cccc(C)c1NC(=O)c1cc2c([nH]c3ccccc32)c(CCc2ccc(N)cc2)n1
Return: 70.3
